- measured-target: ZFP SBS#920 (synthetic)
- Sequence (chain, as listed by the source): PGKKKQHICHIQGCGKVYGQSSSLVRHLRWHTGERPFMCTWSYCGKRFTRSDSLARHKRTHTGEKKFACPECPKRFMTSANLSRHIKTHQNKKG
- assay-protocol: EMSA
- experimental-setup: tags: MBP fusion
measure: Kd (nM)
Number in nM, nothing else.

Query block: Identify the reported Kd for the following entry. GATGTGGTA (dsDNA) DNA 1: GATGTGGTA DNA 2: TACCACATC
Result block: 4
